# measurement.setup: in n-heptane, 280.65 K
The molecules listed here are annotated with their solubility (mole fraction).

>>> reported_value("O=[N+]([O-])c1ccc(Cl)c(Cl)c1")
0.0326

From here, focus on the item given below.
Give its solubility (mole fraction) value. Item: O=[N+]([O-])c1cccc(Cl)c1Cl
0.00962

---

# measurement.setup: in n-butanol, 300.65 K
quantity: solubility (mole fraction)

>>> reported_value("O=[N+]([O-])c1cccc(Cl)c1Cl")
0.0645

Please find the next compound below.
Could you tell me which solubility (mole fraction) is on file for O=[N+]([O-])c1ccc(Cl)c(Cl)c1 ?
0.118

---

Entries and their measured solubility (mole fraction) follow.
# measurement.setup: in n-heptane, 290.65 K

>>> reported_value("O=[N+]([O-])c1ccc(Cl)c(Cl)c1")
0.0564

Requested read-out: solubility (mole fraction). Entry: O=[N+]([O-])c1cccc(Cl)c1Cl
0.0212
